# tested-system: Ba/F3_EGFR del19/T790M/C797S cells (Homo sapiens, UniProt P00533, T790M/C797S, cells depend on it, form not given)
# Sequence (P00533 with tags, fused parts or gaps DEL746-750/T790M/C797S, form open): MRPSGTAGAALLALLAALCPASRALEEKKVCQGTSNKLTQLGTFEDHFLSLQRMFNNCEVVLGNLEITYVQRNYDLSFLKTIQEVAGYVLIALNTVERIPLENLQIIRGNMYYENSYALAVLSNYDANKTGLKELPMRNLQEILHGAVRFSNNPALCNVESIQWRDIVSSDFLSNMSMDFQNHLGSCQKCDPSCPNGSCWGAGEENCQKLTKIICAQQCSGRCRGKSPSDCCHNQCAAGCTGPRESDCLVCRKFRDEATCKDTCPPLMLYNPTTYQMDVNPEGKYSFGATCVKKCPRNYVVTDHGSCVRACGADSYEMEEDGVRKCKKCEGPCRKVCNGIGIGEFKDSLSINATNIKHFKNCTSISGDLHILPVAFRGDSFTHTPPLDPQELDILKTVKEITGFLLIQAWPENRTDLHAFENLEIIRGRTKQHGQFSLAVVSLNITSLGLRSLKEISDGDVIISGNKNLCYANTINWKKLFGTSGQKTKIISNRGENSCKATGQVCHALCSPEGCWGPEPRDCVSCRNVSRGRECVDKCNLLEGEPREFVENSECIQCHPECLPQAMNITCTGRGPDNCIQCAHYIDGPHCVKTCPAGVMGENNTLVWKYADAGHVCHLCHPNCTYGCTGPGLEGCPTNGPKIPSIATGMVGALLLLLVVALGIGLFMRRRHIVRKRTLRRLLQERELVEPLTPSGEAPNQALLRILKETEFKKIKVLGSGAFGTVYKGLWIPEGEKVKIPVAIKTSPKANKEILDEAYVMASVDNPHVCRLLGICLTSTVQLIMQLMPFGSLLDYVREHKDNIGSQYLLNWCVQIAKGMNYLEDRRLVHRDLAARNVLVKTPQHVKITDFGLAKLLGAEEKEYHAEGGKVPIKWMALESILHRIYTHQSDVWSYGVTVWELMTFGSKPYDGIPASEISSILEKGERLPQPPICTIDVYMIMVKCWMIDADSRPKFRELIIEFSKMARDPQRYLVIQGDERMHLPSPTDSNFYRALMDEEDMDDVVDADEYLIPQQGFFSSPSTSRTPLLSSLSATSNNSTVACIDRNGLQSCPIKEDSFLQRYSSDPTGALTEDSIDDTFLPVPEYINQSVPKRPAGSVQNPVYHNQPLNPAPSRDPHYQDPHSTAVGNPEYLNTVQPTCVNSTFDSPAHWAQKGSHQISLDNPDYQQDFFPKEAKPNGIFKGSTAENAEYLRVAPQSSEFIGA
# test-details: Ba/F3_EGFR (del19-T790M-C797S) cell proliferation inhibition, CTG, method 2
# Assay type: cell-based
# assay-setup: 2000 cells/well, 72 h, read-out: Ba/F3_EGFR (del19-T790M-C797S) cell proliferation inhibition (IC50 value) Method 2
# Experimental: Take a small amount of cells and count them with ViCell. 2) Adjust the cell density, inoculate the cells in a 384-well plate at 2000/well, and incubate in a 37° C., 5% CO2 incubator for 4 hours. 3) Set up the program of Tecan HP D300, add the compound to the well plate. The maximum initial concentration of the compound is 1-4 μM, 3 folds dilution, 9 concentrations, and the DMSO content in each well is unified to 0.2%. […] Data analysis: IC50 results are analyzed by IDBS's XL-fit 5.0 software.
test-readout: GI50

In the examples that follow, each entry is paired with its recorded GI50.
// sample Cc1cc(Nc2ncc(Cl)c(Nc3ccccc3P(C)(C)=O)n2)cc2c1N1CCN(C3CCN(C4CC4)CC3)C[C@@H]1CO2 [Compound 33R] , its GI50 was 20 to 100 nM

GI50 recorded for this molecule, Cc1cc(Nc2ncc(Cl)c(Nc3ccccc3P(C)(C)=O)n2)cc2c1N1CCN(C3CCN(C)CC3)C[C@@H]1CO2 [Compound 27R] , is < 20 nM

For reference, reported GI50 for Cc1cc(Nc2ncc(Cl)c(Nc3ccccc3P(C)(C)=O)n2)cc2c1N1CCN(C3CCN(C)CC3)C[C@H]1CO2 [Compound 27S] stands at < 20 nM

The molecule listed as Cc1cc(Nc2ncc(Cl)c(Nc3ccccc3P(C)(C)=O)n2)cc2c1N1CCN(C3CCOCC3)C[C@@H]1CO2 [Compound 31R] shows GI50 equal to 20 to 100 nM

# GI50 (molecule: Cc1cc(Nc2ncc(Cl)c(Nc3ccccc3P(C)(C)=O)n2)cc2c1N1CCN(C3CN(C)C3)C[C@H]1CO2 [Compound 34S] ) is < 20 nM

Others:
GI50 reading for COc1cc(N2CCC(N3CCN(C)CC3)CC2)ccc1Nc1ncc(Cl)c(Nc2ccccc2P(C)(C)=O)n1 [Brigatinib, reference compound] : > 200 nM

What the record says about CC(=O)N1CCC(N2CCN3c4c(C)cc(Nc5ncc(Cl)c(Nc6ccccc6P(C)(C)=O)n5)cc4OC[C@H]3C2)CC1 [Compound 32R] : GI50 is 20 to 100 nM

====

# tested-system: EGFR (T790M/L858R/C797S) (Homo sapiens, UniProt P00533, C797S/L858R/T790M)
# Sequence (P00533 25-1210 T790M/C797S/L858R): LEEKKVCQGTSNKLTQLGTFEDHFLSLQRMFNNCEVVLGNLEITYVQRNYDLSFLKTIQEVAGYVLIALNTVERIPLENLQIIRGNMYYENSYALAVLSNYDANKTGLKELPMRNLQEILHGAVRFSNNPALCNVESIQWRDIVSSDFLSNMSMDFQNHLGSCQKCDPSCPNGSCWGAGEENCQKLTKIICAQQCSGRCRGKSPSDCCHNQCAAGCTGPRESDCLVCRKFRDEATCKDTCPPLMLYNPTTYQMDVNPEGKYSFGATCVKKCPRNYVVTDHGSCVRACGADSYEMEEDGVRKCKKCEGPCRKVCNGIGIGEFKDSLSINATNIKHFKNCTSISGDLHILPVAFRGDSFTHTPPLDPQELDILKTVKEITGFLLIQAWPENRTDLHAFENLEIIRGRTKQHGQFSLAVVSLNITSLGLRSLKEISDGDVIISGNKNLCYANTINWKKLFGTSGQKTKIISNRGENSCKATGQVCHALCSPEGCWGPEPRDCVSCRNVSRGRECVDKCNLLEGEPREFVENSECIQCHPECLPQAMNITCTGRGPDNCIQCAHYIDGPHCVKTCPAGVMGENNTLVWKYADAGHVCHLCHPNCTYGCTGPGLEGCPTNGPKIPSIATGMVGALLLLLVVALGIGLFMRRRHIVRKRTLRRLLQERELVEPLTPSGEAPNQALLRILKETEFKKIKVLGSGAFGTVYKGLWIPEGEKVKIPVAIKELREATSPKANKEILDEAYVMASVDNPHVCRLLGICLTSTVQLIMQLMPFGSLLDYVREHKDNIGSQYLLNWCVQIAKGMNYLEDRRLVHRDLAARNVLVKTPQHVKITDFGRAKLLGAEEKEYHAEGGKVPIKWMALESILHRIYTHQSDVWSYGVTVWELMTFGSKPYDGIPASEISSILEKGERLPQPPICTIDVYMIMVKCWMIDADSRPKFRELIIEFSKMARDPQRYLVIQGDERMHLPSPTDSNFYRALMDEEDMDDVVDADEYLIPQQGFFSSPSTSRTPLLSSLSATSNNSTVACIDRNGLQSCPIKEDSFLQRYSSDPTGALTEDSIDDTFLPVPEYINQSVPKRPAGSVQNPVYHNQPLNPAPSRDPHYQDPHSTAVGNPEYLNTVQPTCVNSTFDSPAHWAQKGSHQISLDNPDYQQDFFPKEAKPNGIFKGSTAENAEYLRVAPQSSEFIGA
# test-details: EGFR (T790M/L858R/C797S) kinase activity inhibition, Caliper mobility shift assay
# assay-setup: kinase 2.5 nM, ATP 40 μM
pIC50: −log10 of the molar value.
test-readout: pIC50

Examples with answers:
// field: pIC50; key: Cc1cc(Nc2ncc(Cl)c(Nc3ccccc3P(C)(C)=O)n2)cc2c1N1CCN(C3CCOCC3)C[C@@H]1CO2 [Compound 31R] ; value = > 8.52

Entry CP(C)(=O)c1ccccc1Nc1nc(Nc2ccc3c(c2)OC[C@H]2CN(c4ccccc4)CCN32)ncc1Cl [Compound 16R] , pIC50 reported as 7.00 to 7.82

// recorded pIC50 for CP(C)(=O)c1ccccc1Nc1nc(Nc2ccc3c(c2)OC[C@H]2CN(C4CCNCC4)CCN32)ncc1Cl [Compound 21R] : > 8.52

Consider the additional compound presented here.
Entry Cc1cc(Nc2ncc(Cl)c(Nc3ccccc3P(C)(C)=O)n2)cc2c1N1CCN(C3CCN(C)CC3)C[C@H]1CO2 [Compound 27S] — recorded pIC50 = > 8.52

====

# test-details: Pharmacokinetic study in rats after intragastrical administration
# Assay type: in vivo
# assay-setup: male, rat, plasma, po, SD rats, 3 mg/kg
test-readout: Tmax (h)

The reported value for Cc1cc(Nc2ncc(Cl)c(Nc3ccccc3P(C)(C)=O)n2)cc2c1N1CCN(C3CCOCC3)C[C@H]1CO2 [Compound 31S] in terms of Tmax is 1

Measured Tmax, Cc1cc(Nc2ncc(Cl)c(Nc3ccccc3P(C)(C)=O)n2)cc2c1N1CCN(C3CCN(C4CC4)CC3)C[C@@H]1CO2 [Compound 33R] : 7.33

get_value(item= Cc1cc(Nc2ncc(Cl)c(Nc3ccccc3P(C)(C)=O)n2)cc2c1N1CCN(C)C[C@@H]1CO2 [Compound 25R] , readout=Tmax) returns 6.33

Please fill in: Tmax reported for Cc1cc(Nc2ncc(Cl)c(Nc3ccccc3P(C)(C)=O)n2)cc2c1N1CCN(C3CCOCC3)C[C@@H]1CO2 [Compound 31R] = 6.33

Value of measured Tmax for the entry Cc1cc(Nc2ncc(Cl)c(Nc3ccccc3P(C)(C)=O)n2)cc2c1N1CCN(C3CCN(C)CC3)C[C@H]1CO2 [Compound 27S] : 10

A = CC(=O)N1CCC(N2CCN3c4c(C)cc(Nc5ncc(Cl)c(Nc6ccccc6P(C)(C)=O)n5)cc4OC[C@H]3C2)CC1 [Compound 32R]
B = CC(=O)N1CCC(N2CCN3c4c(C)cc(Nc5ncc(Cl)c(Nc6ccccc6P(C)(C)=O)n5)cc4OC[C@@H]3C2)CC1 [Compound 32S]
In: Returns: the label, A or B , whose recorded Tmax is the lower number. Indicate your choice by writing its label.
Out: A
(A: 2 h, B: 3.33 h)

====

Listed molecules paired with reported IC50
# tested-system: EGFR (C797S) (Homo sapiens, UniProt P00533, C797S)
# Sequence (P00533 25-1210 C797S): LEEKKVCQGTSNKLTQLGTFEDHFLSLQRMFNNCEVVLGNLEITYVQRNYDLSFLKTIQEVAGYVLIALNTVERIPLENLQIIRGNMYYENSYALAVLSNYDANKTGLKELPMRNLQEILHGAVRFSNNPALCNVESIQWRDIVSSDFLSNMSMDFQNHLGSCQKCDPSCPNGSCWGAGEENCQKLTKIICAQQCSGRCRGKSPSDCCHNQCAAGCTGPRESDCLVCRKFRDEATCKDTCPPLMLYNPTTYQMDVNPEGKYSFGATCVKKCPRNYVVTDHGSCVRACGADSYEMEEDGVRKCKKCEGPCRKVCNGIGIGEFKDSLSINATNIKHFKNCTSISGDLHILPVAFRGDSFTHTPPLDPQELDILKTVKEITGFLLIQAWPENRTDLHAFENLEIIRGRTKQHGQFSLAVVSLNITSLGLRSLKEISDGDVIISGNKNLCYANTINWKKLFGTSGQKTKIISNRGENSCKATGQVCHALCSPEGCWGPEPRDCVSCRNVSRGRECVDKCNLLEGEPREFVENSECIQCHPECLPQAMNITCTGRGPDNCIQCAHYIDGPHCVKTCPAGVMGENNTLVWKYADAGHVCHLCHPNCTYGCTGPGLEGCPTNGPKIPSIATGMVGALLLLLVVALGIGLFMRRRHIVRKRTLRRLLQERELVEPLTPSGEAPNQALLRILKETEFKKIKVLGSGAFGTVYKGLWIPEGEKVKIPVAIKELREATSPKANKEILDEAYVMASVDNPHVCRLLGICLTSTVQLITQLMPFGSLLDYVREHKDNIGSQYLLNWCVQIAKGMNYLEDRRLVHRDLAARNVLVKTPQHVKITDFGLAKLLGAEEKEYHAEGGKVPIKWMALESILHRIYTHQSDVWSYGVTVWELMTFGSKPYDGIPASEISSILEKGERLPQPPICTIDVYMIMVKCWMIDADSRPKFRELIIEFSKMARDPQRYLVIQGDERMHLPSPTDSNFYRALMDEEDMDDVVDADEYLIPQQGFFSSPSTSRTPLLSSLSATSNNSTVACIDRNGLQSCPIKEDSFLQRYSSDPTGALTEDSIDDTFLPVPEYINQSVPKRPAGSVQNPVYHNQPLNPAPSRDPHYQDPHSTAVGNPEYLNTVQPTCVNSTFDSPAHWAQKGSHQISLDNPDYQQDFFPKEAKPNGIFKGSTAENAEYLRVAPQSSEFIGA
# test-details: EGFR (C797S) kinase activity inhibition, Lantha screen Assay
# assay-setup: kinase 10 nM, ATP 0.1 μM

See these solved cases before continuing.
Please fill in: IC50 reported for CP(C)(=O)c1ccccc1Nc1nc(Nc2ccc3c(c2)OC[C@@H]2COCCN32)ncc1Cl [Compound 12S] = 50 to 250 nM

response.value for CP(C)(=O)c1ccccc1Nc1nc(Nc2ccc3c(c2)OC[C@H]2CN(c4ccccc4)CCN32)ncc1Cl [Compound 16R] (field: IC50) = 50 to 250 nM

Record CP(C)(=O)c1ccccc1Nc1nc(Nc2ccc3c(c2)OC[C@H]2CN(c4cccnc4)CCN32)ncc1Cl [Compound 15R] . Reported IC50: 50 to 250 nM

Continue with the molecule presented below.
Please fill in: IC50 reported for CP(C)(=O)c1ccccc1Nc1nc(Nc2ccc3c(c2)OC[C@H]2CNCCN32)ncc1Cl [Compound 4R] = 1 to 50 nM

====

# test-details: Pharmacokinetic study in rats after intragastrical administration
# Assay type: in vivo
# assay-setup: male, rat, plasma, po, SD rats, 4 mg/kg
# Procedure: Example 55: Pharmacokinetic Study in Rats Instruments: XEVO TQ-S LC/MS instrument produced by Waters. All measurement data is collected and processed by Masslynx V4.1 software, and the data is calculated and processed by Microsoft Excel. Using WinNonLin 8.0 software, the statistical moment method was used to calculate the pharmacokinetic parameters. Mainly include kinetic parameters Tmax, T1/2, Cmax, AUClast etc. […] Injection volume: 5 μL. Animals: 3 male SD rats with a weight range of 200-220 g. […]
test-readout: Cmax (ng/mL)
Numbers only here, please. The scale is ng/mL.

Please fill in: Cmax reported for CN1CCN2c3ccc(Nc4ncc(Cl)c(Nc5ccccc5P(C)(C)=O)n4)cc3OC[C@H]2C1 = 23.1

====

# tested-system: Ba/F3_EGFR del19/T790M/C797S cells (Homo sapiens, UniProt P00533, T790M/C797S, cells depend on it, form not given)
# test-details: Ba/F3_EGFR (del19-T790M-C797S) cell proliferation inhibition, CTG, method 2
# Assay type: cell-based
# assay-setup: 2000 cells/well, 72 h, read-out: Ba/F3_EGFR (del19-T790M-C797S) cell proliferation inhibition (IC50 value) Method 2
GI50 by entry:

Recorded result, CN1CCC(N2CCN3c4c(F)cc(Nc5ncc(Cl)c(Nc6ccccc6P(C)(C)=O)n5)cc4OC[C@@H]3C2)CC1 [Compound 35S] , GI50: 20 to 100 nM

New cases:
GI50 reported for this compound CCN1CCC(N2CCN3c4c(C)cc(Nc5ncc(Cl)c(Nc6ccccc6P(C)(C)=O)n5)cc4OC[C@H]3C2)CC1 [Compound 30R] : 20 to 100 nM

Summary for this compound, Cc1cc(Nc2ncc(Cl)c(Nc3ccccc3P(C)(C)=O)n2)cc2c1N1CCN(C3CCOCC3)C[C@H]1CO2 [Compound 31S] : GI50 is 20 to 100 nM

====

# test-details: Pharmacokinetic study in rats after intragastrical administration
# Type: in vivo
# assay-setup: male, rat, plasma, po, SD rats, 3 mg/kg, read-out: AUC0-24 h
test-readout: AUC(0-t) (ng·h/mL)

Here's what some known entries look like.
Entry under test: Cc1cc(Nc2ncc(Cl)c(Nc3ccccc3P(C)(C)=O)n2)cc2c1N1CCN(C)C[C@@H]1CO2 [Compound 25R] . Its AUC(0-t) was 585

Measured AUC(0-t) of Cc1cc(Nc2ncc(Cl)c(Nc3ccccc3P(C)(C)=O)n2)cc2c1N1CCN(C3CCN(C)CC3)C[C@@H]1CO2 [Compound 27R] : 2750

P = Cc1cc(Nc2ncc(Cl)c(Nc3ccccc3P(C)(C)=O)n2)cc2c1N1CCN(C3CCOCC3)C[C@@H]1CO2 [Compound 31R]
Q = Cc1cc(Nc2ncc(Cl)c(Nc3ccccc3P(C)(C)=O)n2)cc2c1N1CCN(C3CCOCC3)C[C@H]1CO2 [Compound 31S]
In: Quick check, higher AUC(0-t) between P and Q ? Your answer should be the label of the entry you select.
Out: Q
(Q: 1350 ng·h/mL, P: 687 ng·h/mL)
